Measured remaining at 0.25 h by item
assay: Stability in mouse liver microsomes assessed as parent compound remaining level incubated for 15 mins; assay type: ADME, microsome; conditions: read-out: Stability
// return numeric value only (unit: %, not printed)

Field: example entries. Status: answers known.
O=C(Nc1ccccn1)c1ccc(CN2C(=O)c3ccc(Cl)cc3NC(=O)[C@H]2Cc2ccccn2)cc1; 53
COc1cnc(NC(=O)c2ccc(CN3C(=O)c4ccc(Cl)cc4NC(=O)[C@H]3Cc3ccccn3)cc2)nc1; 77
Cc1ccc(NC(=O)c2ccc(CN3C(=O)c4ccc(Cl)cc4NC(=O)[C@H]3Cc3ccccn3)cc2)nc1; 43

Dear colleague, I am looking for the recorded remaining at 0.25 h of the following compound: "Cc1cc(NC(=O)c2ccc(CN3C(=O)c4ccc(Cl)cc4NC(=O)[C@H]3Cc3cccnc3)cc2)no1"
31

Dear colleague, I am looking for the recorded remaining at 0.25 h of the following compound: "O=C(Nc1nccs1)c1ccc(CN2C(=O)c3ccc(Cl)cc3NC(=O)[C@H]2Cc2cccnc2)cc1"
67

---

assay: Stability in mouse liver microsomes assessed as parent compound remaining level incubated for 15 mins; type: ADME, microsome; conditions: read-out: Stability
Measured remaining at 0.25 h by item
// return numeric value only (unit: %, not printed)

O=C(Nc1ncccn1)c1ccc(CN2C(=O)c3ccc(Cl)cc3NC(=O)[C@H]2Cc2cccnc2)cc1; 88
COc1ccc(NC(=O)c2ccc(CN3C(=O)c4ccc(Cl)cc4NC(=O)[C@H]3Cc3ccccn3)cc2)nc1; 61
O=C(Nc1ccccn1)c1ccc(CN2C(=O)c3ccc(Cl)cc3NC(=O)[C@H]2Cc2cccnc2)cc1; 57

Dear colleague, I am looking for the recorded remaining at 0.25 h of the following compound: "O=C(Nc1cnccn1)c1ccc(CN2C(=O)c3ccc(Cl)cc3NC(=O)[C@H]2Cc2cccnc2)cc1"
98

---

assay: AUC (0 to 24 hrs) in CD1 mouse at 10 mg/kg, po; assay type: ADME, organism-based; parameters: dose 10 mg/kg, time < 24 hr, route oral; details: in vivo
Measured AUC(0-t) at 24 h by item
// return numeric value only (unit: ng·h/mL, not printed)

Cc1ccc(NC(=O)c2ccc(CN3C(=O)c4ccc(Cl)cc4NC(=O)[C@H]3Cc3ccccn3)cc2)nc1; 1070

Alright, here's another molecule for you.
Dear colleague, I am looking for the recorded AUC(0-t) at 24 h of the following molecule: "COc1cnc(NC(=O)c2ccc(CN3C(=O)c4ccc(Cl)cc4NC(=O)[C@H]3Cc3ccccn3)cc2)nc1"
181

---

target: Toxin B (Clostridioides difficile, UniProt P18177); experiment: Inhibition of C-terminal 6-His tagged recombinant Clostridium difficile toxin B catalytic fragment (Met1 to Leu543 residues) assessed as reduction in glucosyltransferase domain UDP-glucose hydrolysis activity using UDP-glucose and ADP Alexa633 tracer incubated fore 3 hrs by fluorescence polarization assay
Sequence (P18177 whole entry, the tested form may be a part): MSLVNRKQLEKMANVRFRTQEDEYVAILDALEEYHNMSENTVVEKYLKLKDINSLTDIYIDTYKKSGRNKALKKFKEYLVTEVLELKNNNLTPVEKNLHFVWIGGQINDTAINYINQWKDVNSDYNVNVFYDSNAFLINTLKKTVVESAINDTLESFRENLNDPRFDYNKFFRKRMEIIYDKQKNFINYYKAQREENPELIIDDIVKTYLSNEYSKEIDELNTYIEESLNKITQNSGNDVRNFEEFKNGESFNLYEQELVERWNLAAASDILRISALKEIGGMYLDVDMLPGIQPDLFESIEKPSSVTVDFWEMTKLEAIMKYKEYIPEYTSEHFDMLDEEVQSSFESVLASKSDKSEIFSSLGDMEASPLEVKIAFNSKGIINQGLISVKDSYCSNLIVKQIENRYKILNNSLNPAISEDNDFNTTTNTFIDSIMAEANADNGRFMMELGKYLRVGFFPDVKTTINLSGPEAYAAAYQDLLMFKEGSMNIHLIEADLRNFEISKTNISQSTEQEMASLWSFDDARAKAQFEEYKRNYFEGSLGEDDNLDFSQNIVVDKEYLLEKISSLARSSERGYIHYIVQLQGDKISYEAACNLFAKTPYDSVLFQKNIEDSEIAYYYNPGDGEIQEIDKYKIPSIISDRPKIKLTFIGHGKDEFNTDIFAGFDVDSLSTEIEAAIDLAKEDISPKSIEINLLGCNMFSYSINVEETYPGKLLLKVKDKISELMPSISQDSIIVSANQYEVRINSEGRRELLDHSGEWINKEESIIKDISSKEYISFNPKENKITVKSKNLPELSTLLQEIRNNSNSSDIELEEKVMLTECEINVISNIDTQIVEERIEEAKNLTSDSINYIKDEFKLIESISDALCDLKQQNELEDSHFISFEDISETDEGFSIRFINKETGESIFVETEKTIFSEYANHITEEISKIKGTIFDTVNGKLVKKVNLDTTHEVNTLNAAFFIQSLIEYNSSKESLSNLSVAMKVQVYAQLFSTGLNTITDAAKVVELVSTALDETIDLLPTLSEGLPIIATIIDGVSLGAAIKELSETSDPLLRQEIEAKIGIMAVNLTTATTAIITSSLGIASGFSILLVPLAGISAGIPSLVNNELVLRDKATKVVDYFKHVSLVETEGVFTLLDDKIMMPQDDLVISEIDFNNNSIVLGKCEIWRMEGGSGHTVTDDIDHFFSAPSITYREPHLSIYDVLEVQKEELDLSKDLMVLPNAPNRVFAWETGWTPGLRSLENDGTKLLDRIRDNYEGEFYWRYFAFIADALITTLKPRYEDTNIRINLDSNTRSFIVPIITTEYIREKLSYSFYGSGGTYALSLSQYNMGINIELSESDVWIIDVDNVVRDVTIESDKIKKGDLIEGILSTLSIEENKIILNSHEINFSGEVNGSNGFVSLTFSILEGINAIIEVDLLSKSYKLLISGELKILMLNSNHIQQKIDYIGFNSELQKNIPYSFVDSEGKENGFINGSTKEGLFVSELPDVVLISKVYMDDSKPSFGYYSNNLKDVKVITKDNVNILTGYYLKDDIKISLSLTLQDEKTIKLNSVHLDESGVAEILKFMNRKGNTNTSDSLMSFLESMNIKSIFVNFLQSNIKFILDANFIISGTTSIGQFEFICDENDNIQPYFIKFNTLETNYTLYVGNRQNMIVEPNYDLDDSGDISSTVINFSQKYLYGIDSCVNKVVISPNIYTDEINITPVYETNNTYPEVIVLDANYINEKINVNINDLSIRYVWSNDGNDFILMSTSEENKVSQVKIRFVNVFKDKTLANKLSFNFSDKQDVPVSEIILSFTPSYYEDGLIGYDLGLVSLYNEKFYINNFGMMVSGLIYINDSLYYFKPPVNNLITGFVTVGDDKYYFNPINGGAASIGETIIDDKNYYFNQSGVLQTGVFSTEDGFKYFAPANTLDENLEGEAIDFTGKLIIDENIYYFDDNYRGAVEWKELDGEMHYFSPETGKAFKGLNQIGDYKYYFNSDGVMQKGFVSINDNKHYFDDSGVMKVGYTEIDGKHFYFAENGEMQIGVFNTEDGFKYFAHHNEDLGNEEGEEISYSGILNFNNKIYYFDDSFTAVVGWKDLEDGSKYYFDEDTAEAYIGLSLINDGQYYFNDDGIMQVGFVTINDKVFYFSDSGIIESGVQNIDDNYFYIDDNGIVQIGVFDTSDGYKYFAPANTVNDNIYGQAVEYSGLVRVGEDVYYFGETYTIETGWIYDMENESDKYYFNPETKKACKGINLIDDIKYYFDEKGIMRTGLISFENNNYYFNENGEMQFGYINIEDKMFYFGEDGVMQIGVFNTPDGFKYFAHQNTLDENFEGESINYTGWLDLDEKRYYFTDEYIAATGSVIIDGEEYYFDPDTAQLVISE
pIC50: −log10 of the molar value.
Note to self: values exactly at 6 are met. So pIC50 at or above 6 is met, below is not met.

Observe how each entry below is paired with its result.
O=C(O)c1ccc(CN2C(=O)c3cccc(Cl)c3NC(=O)[C@H]2Cc2cccnc2)cc1; not met
O=C(O)c1ccc(CN2C(=O)c3ccc(Cl)cc3NC(=O)[C@H]2Cc2ccccn2)cc1; met
COC(=O)c1ccc(CN2C(=O)c3ccc(Cl)cc3NC(=O)[C@H]2Cc2cccnc2)cc1; not met
O=C(O)c1ccc(CN2C(=O)c3ccc(Cl)cc3NC(=O)[C@H]2Cc2ccccc2Cl)cc1; not met
Cc1ccc(NC(=O)c2ccc(CN3C(=O)c4ccc(Cl)cc4NC(=O)[C@H]3Cc3ccccn3)cc2)nc1; met

Is it the case that "O=C(Nc1ccccn1)c1ccc(CN2C(=O)c3ccc(Cl)cc3NC(=O)[C@H]2Cc2ccccn2)cc1" has pIC50 reaching or exceeding 6?
met

Is it the case that "O=C(Nc1ccccn1)c1ccc(CN2C(=O)c3ccc(Cl)cc3NC(=O)[C@H]2Cc2cccnc2)cc1" has pIC50 reaching or exceeding 6?
met

Is it the case that "O=C(O)c1ccc(CN2C(=O)c3ccc(Cl)cc3NC(=O)[C@H]2Cc2ccc(O)cc2)cc1" has pIC50 reaching or exceeding 6?
not met

Is it the case that "O=C(O)c1ccc(CN2C(=O)c3ccc(Cl)cc3NC(=O)[C@@H]2Cc2ccccn2)cc1" has pIC50 reaching or exceeding 6?
met

---

molecular target: UniProt P18177; assay: Inhibition of Clostridium difficile toxin B […] assessed as reduction in caspase 3/7 activation pre-incubated for 1 hr before TcdB addition by luminescence based assay1; assay type: cell-based
Measured pIC50 by item
Friendly reminder that pIC50 comes from taking -log10 of the concentration in mol/L.

Field: example entries. Status: answers known.
Cc1ccc(NC(=O)c2ccc(CN3C(=O)c4ccc(Cl)cc4NC(=O)[C@H]3Cc3ccccn3)cc2)nc1; 6.77
O=C(Nc1nccs1)c1ccc(CN2C(=O)c3ccc(Cl)cc3NC(=O)[C@H]2Cc2cccnc2)cc1; 4.70
O=C(Nc1ccccn1)c1ccc(CN2C(=O)c3ccc(Cl)cc3NC(=O)[C@H]2Cc2cccnc2)cc1; 5.35

Dear colleague, I am looking for the recorded pIC50 of the following compound: "COc1ccc(NC(=O)c2ccc(CN3C(=O)c4ccc(Cl)cc4NC(=O)[C@H]3Cc3ccccn3)cc2)nc1"
7.37

Dear colleague, I am looking for the recorded pIC50 of the following compound: "COc1cnc(NC(=O)c2ccc(CN3C(=O)c4ccc(Cl)cc4NC(=O)[C@H]3Cc3ccccn3)cc2)nc1"
6.28

Dear colleague, I am looking for the recorded pIC50 of the following compound: "O=C(Nc1ccccn1)c1ccc(CN2C(=O)c3ccc(Cl)cc3NC(=O)[C@H]2Cc2ccccn2)cc1"
6.64

Dear colleague, I am looking for the recorded pIC50 of the following compound: "Cc1cc(NC(=O)c2ccc(CN3C(=O)c4ccc(Cl)cc4NC(=O)[C@H]3Cc3cccnc3)cc2)no1"
4.72

Dear colleague, I am looking for the recorded pIC50 of the following compound: "O=C(Nc1cnccn1)c1ccc(CN2C(=O)c3ccc(Cl)cc3NC(=O)[C@H]2Cc2cccnc2)cc1"
4.89

---

target: Toxin B (Clostridioides difficile); test: Inhibition of C-terminal 6-His tagged recombinant Clostridium difficile toxin B catalytic fragment (Met1 to Leu543 residues) assessed as reduction in glucosyltransferase domain UDP-glucose hydrolysis activity using UDP-glucose and ADP Alexa633 tracer incubated fore 3 hrs by fluorescence polarization assay
// classify: if (IC50 < 6 µM) true (1) else false (0)

Observe how each entry below is paired with its result.
Cc1cc(NC(=O)c2ccc(CN3C(=O)c4ccc(Cl)cc4NC(=O)[C@H]3Cc3cccnc3)cc2)no1; true (1)
Cc1ccc(C[C@@H]2C(=O)Nc3cc(Cl)ccc3C(=O)N2Cc2ccc(C(=O)O)cc2)cc1; false (0)
O=C(O)c1ccc(CN2C(=O)c3ccc(Cl)cc3NC(=O)C2Cc2cnccn2)cc1 (racemic); true (1)
O=C(O)c1ccc(CN2C(=O)c3ccc(Cl)cc3NC(=O)[C@H]2CCc2ccccc2)cc1; false (0)
O=C(O)c1ccc(CN2C(=O)c3ccc(Cl)cc3NC(=O)[C@H]2c2ccccc2)cc1; false (0)

Dear colleague, could you confirm whether IC50 of "O=C(O)c1ccc(CN2C(=O)c3ccc(Cl)cc3NC(=O)[C@H]2Cc2ccc(Cl)cc2)cc1" falls below 6 µM? Thanks.
false (0)

Dear colleague, could you confirm whether IC50 of "N#Cc1cccc(C[C@@H]2C(=O)Nc3cc(Cl)ccc3C(=O)N2Cc2ccc(C(=O)O)cc2)c1" falls below 6 µM? Thanks.
false (0)

Dear colleague, could you confirm whether IC50 of "NC(=O)c1ccc(CN2C(=O)c3ccc(Cl)cc3NC(=O)[C@@H]2Cc2ccc(Cl)c(Cl)c2)cc1" falls below 6 µM? Thanks.
false (0)

Dear colleague, could you confirm whether IC50 of "O=C(O)c1ccc(CN2C(=O)c3ccccc3NC(=O)[C@H]2Cc2cccnc2)cc1" falls below 6 µM? Thanks.
false (0)

---

Measured Tmax by item
assay: Tmax in CD1 mouse at 10 mg/kg, po; assay type: ADME, organism-based; settings: in vivo
// return numeric value only (unit: min, not printed)

COc1cnc(NC(=O)c2ccc(CN3C(=O)c4ccc(Cl)cc4NC(=O)[C@H]3Cc3ccccn3)cc2)nc1; 30

Alright, here's another compound for you.
Dear colleague, I am looking for the recorded Tmax of the following compound: "Cc1ccc(NC(=O)c2ccc(CN3C(=O)c4ccc(Cl)cc4NC(=O)[C@H]3Cc3ccccn3)cc2)nc1"
15

---

assay: AUC (0 to 24 hrs) in CD1 mouse at 1 mg/kg, iv; type: ADME, organism-based; set-up: dose 1 mg/kg, time < 24 hr, route intravenous; details: in vivo
Readout type: AUC(0-t) at 24 h (ng·h/mL)
// return numeric value only (unit: ng·h/mL, not printed)

COc1cnc(NC(=O)c2ccc(CN3C(=O)c4ccc(Cl)cc4NC(=O)[C@H]3Cc3ccccn3)cc2)nc1; 2

Dear colleague, I am looking for the recorded AUC(0-t) at 24 h of the following compound: "Cc1ccc(NC(=O)c2ccc(CN3C(=O)c4ccc(Cl)cc4NC(=O)[C@H]3Cc3ccccn3)cc2)nc1"
200
